Test system: Cullin-3 (CUL3) neddylation
Assay Details: AlphaLISA assay for Cullin-3 (CUL3) neddylation in TF 1 cells
Assay type: cell-based
Experimental Conditions: Homo sapiens, TF-1, 3 h, 3 hours treatment
Procedure: An AiphaLISA assay was performed to evaluate the ability of the compounds to suppress neddylation, which is downstream from DCN-1 and DCN-2. A stronger inhibition of DCN-1 and DCN-2 is expected to result in a suppression of neddylation as shown by a lower AlphaLISA signal. […] The AlphaLISA signal was then read on a VICTOR Nivo Multimode Microplate Reader (Revvity, Hopkinton, MA). […]
pIC50: −log10 of the molar value.
Some compounds, each annotated with its measured pIC50.

Query :: Field request: pIC50 | item: C[C@@H](NC#N)c1nn(-c2ccccc2)c2c1[C@@H](c1ccc(F)cc1)[C@@H](NC(=O)c1cccc(C(F)(F)F)c1)C(=O)N2CCO
Result :: < 6.00

###

Target Of Assay: DCN1 (DCUND1) protein PONY domain (Homo sapiens (Human), UniProt Q96GG9)
Sequence (Q96GG9 60-248): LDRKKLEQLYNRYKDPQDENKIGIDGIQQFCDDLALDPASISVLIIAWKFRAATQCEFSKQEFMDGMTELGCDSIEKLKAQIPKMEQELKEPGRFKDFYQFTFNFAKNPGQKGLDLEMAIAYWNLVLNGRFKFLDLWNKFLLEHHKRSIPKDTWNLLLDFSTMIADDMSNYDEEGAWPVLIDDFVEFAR
Assay Details: TR-FRET assay, DCN1 binding with FAM-labeled probe
Experimental Conditions: read-out: TR FRET IC50 1 hr; 1 hr after treatment with compound
pIC50: −log10 of the molar value.
Readout Type: pIC50

Example entries begin here.
{"Compound": "CCN1C(=O)[C@@H](NC(=O)c2cccc(C(F)(F)F)c2)[C@@H](C2CC2)c2c(C(=O)N(C)[C@H](C)C#N)nn(C3CCOCC3)c21", "pIC50": "≥ 6.70"}
{"Compound": "C=C(CN1CCC1)C(=O)NCc1nn(-c2ccccc2)c2c1[C@@H](c1ccc(F)cc1)[C@H](NC(=O)c1cccc(C(F)(F)F)c1)C(=O)N2CC", "pIC50": "≥ 6.70"}
{"Compound": "CCN1C(=O)[C@H](NC(=O)c2cccc(C(F)(F)F)c2)[C@H](c2ccc(F)cc2)c2c(C(=O)N3[C@H](C#N)C[C@H]4C[C@H]43)nn([C@@H]3CCOC3)c21 (single isomer, unassigned)", "pIC50": "5.52 to 6.00"}
{"Compound": "CCN1C(=O)[C@@H](NC(=O)c2cccc(C(F)(F)F)c2)[C@@H](c2ccc(F)cc2)c2c(COCC#N)nn(-c3ccccc3)c21", "pIC50": "≥ 6.70"}

Query :: Field request: pIC50 | item: CCN1C(=O)[C@@H](NC(=O)c2cccc(C(F)(F)F)c2)[C@@H](c2ccc(F)cc2)c2c(C(=O)N3CCC[C@H]3C#N)nn(-c3cccc(OCCN4CC5(COC5)C4)c3)c21
Result :: ≥ 6.70

###

System: Cullin-3 (CUL3) neddylation
Assay Details: AlphaLISA assay for Cullin-3 (CUL3) neddylation in TF 1 cells
Format: cell-based
Experimental Conditions: Homo sapiens, TF-1, 3 h, 3 hours treatment
Readout Type: IC50

Example entries begin here.
{"Compound": "CCN1C(=O)[C@@H](NC(=O)c2ccn(C(F)(F)F)n2)[C@@H](c2ccc(F)cc2)c2c(C(=O)N3[C@H](C#N)C[C@H]4C[C@H]43)nn(-c3ccccc3)c21", "IC50": "≤ 100 nM"}
{"Compound": "CCN1C(=O)[C@@H](NC(=O)c2cccc(C(F)(F)F)c2)[C@@H](C2CC2)c2c(C(=O)N3C[C@H](NC)C[C@H]3C#N)nn(C3CCOCC3)c21", "IC50": "≤ 100 nM"}
{"Compound": "CCN1C(=O)[C@@H](NC(=O)c2cccc(C(F)(F)F)c2)[C@@H](c2ccc(F)cc2)c2c(C(=O)N(C)[C@H](C#N)CCN3CC4CCC(C3)O4)nn(-c3ccccc3)c21", "IC50": "≤ 100 nM"}
{"Compound": "CCN1C(=O)[C@@H](NC(=O)c2cccc(C(F)(F)F)c2)[C@@H](c2ccc(F)cc2)c2c(CNC(=O)C#CCN(C)C)nn(-c3ccccc3)c21 (racemic)", "IC50": "≤ 100 nM"}
{"Compound": "CCN1C(=O)[C@@H](NC(=O)c2cccc(C(F)(F)F)c2)[C@@H](c2ccc(F)cc2)c2c(CN(CC#N)C(C)=O)nn(-c3ccccc3)c21", "IC50": "100 to 1000 nM"}
{"Compound": "CCCn1nc(C(=O)N(CC#N)C2CC2)c2c1N(CC)C(=O)[C@H](NC(=O)c1cccc(C(F)(F)F)c1)[C@@H]2c1ccc(F)cc1", "IC50": "> 1000 nM"}
{"Compound": "CCN1C(=O)[C@@H](NC(=O)c2cccc(C(F)(F)F)c2)[C@@H](c2ccc(F)cc2)c2c([C@@H](C)N(C#N)CCCN(C)C)nn(-c3ccccc3)c21", "IC50": "100 to 1000 nM"}
{"Compound": "CCN1C(=O)[C@@H](NC(=O)c2cccc(C(F)(F)F)c2)[C@@H](c2ccc(F)cc2)c2c(C(=O)N(CC#N)CCN3CCN(C4COC4)CC3)nn(-c3ccccc3)c21", "IC50": "≤ 100 nM"}

Query :: Field request: IC50 | item: CCN1C(=O)[C@H](NC(=O)c2cccc(C(F)(F)F)c2)[C@@H](c2ccc(F)cc2)c2c(CNC(=O)/C(C)=C/C(=O)OC)nn(-c3ccccc3)c21
Result :: ≤ 100 nM

Query :: Follow-up entry: CCN1C(=O)[C@@H](NC(=O)c2cccc(C(F)(F)F)c2)[C@@H](c2ccc(F)cc2)c2c(C(=O)N(CC#N)CCCN(C)C)nn(-c3ccccc3)c21 (racemic)
Result :: ≤ 100 nM

Query :: Follow-up entry: CCN1C(=O)[C@@H](NC(=O)c2cccc(C(F)(F)F)c2)[C@@H](c2ccc(F)cc2)c2c(CNC(=O)/C(C#N)=C/C(C)(C)C)nn(-c3ccccc3)c21 (racemic)
Result :: ≤ 100 nM

###

Target Of Assay: DCN1 (DCUND1) protein PONY domain (Homo sapiens (Human), UniProt Q96GG9)
Assay Details: TR-FRET assay, DCN1 binding with FAM-labeled probe
Experimental Conditions: TR FRET IC50 1 hr (nM), 1 hr after treatment with compound
Readout Type: IC50

{"Compound": "CCN1C(=O)[C@@H](NC(=O)CC(C)(C)C)[C@@H](C2CC2)c2c(C(=O)N3[C@H](C#N)C[C@H]4C[C@H]43)nn(C3CCOCC3)c21 [Compound I-424]", "Target Of Assay": "DCN1 (DCUND1) protein PONY domain (Homo sapiens (Human), UniProt Q96GG9)", "IC50": "1000 to 3000 nM"}
{"Compound": "CCN1C(=O)[C@@H](NC(=O)Cc2ccc(C)cc2C)[C@@H](C2CC2)c2c(C(=O)N3[C@H](C#N)C[C@H]4C[C@H]43)nn(C3CCOCC3)c21 [Compound I-511]", "Target Of Assay": "DCN1 (DCUND1) protein PONY domain (Homo sapiens (Human), UniProt Q96GG9)", "IC50": "1000 to 3000 nM"}
{"Compound": "CCN1C(=O)[C@H](NC(=O)c2cccc(C(F)(F)F)c2)[C@@H](c2ccc(F)cc2)c2c([C@@H](C)NC#N)nn(-c3ccccc3)c21 [Compound I-637]", "Target Of Assay": "DCN1 (DCUND1) protein PONY domain (Homo sapiens (Human), UniProt Q96GG9)", "IC50": "1000 to 3000 nM"}
{"Compound": "CCN1C(=O)[C@@H](NC(=O)c2cccc(C(F)(F)F)c2)[C@@H](c2ccc(F)cc2)c2c(CN(C#N)CCCO)nn(-c3ccccc3)c21 (racemic) [Compound I-246]", "Target Of Assay": "DCN1 (DCUND1) protein PONY domain (Homo sapiens (Human), UniProt Q96GG9)", "IC50": "200 to 1000 nM"}
{"Compound": "CCN1C(=O)[C@@H](NC(=O)Cc2ccccc2)[C@@H](C2CC2)c2c(C(=O)N3[C@H](C#N)C[C@H]4C[C@H]43)nn(C3CCOCC3)c21 [Compound I-595]", "Target Of Assay": "DCN1 (DCUND1) protein PONY domain (Homo sapiens (Human), UniProt Q96GG9)", "IC50": "1000 to 3000 nM"}

Query :: Field request: IC50 | item: CCN1C(=O)[C@@H](NC(=O)c2cccc(C(F)(F)F)c2)[C@@H](c2ccc(F)cc2)c2c(CC/C=C/C(=O)OC)nn(-c3ccccc3)c21 (racemic) [Compound I-128]
Result :: 1000 to 3000 nM

Query :: Follow-up entry: CCN1C(=O)[C@@H](NC(=O)C2CC(=O)N(Cc3ccccc3)C2)[C@@H](C2CC2)c2c(C(=O)N3[C@H](C#N)C[C@H]4C[C@H]43)nn(C3CCOCC3)c21 (some centres unmarked) [Compound I-435]
Result :: 1000 to 3000 nM

###

Target Of Assay: DCN1 (DCUND1) protein PONY domain (Homo sapiens (Human), UniProt Q96GG9)
Assay Details: TR-FRET assay, DCN1 binding with FAM-labeled probe
Experimental Conditions: TR FRET IC50 1 hr (nM), 1 hr after treatment with compound
Experimental: A TR-FRET assay was performed to evaluate the ability of the compounds to bind the DCN-1 protein. The TR-FRET assay was designed following the Scott et al. protocol (Scott et al., Nat Chem Biol. 2017 August; 13(8): 850-857. Doi:10.1038/nchembio.2386). […] The TR-FRET ratio between Tb-DCN1 and the FAM-labeled probe was measured in a 384-well opti-plate (Perkin Elmer) using a plate reader (BMG) at 1, 5, and 24 hrs after treatment with compound (final DMSO concentration of 0.1%).
Readout Type: IC50

Example entries begin here.
{"Compound": "CCN1C(=O)[C@@H](NC(=O)c2cncc(C(F)(F)F)n2)[C@@H](C2CC2)c2c(C(=O)N3[C@H](C#N)C[C@H]4C[C@H]43)nn(C3CCOCC3)c21", "Value Reported": "1000 to 3000 nM"}
{"Compound": "CCN1C(=O)[C@@H](NC(=O)c2cccc(C(F)(F)F)c2)[C@@H](c2ccc(F)cc2)c2c(CN(C#N)CCN(C)C)nn(-c3ccccc3)c21 (racemic)", "Value Reported": "200 to 1000 nM"}
{"Compound": "CCN1C(=O)[C@@H](NC(=O)c2cccc(C(F)(F)F)c2)[C@@H](c2ccc(F)cc2)c2c(C(=O)N(CC#N)CCN3CC4CCC(C3)O4)nn(-c3ccccc3)c21 (mixture of isomers)", "Value Reported": "200 to 1000 nM"}
{"Compound": "CCN1C(=O)[C@@H](NC(=O)c2cccc(C(F)(F)F)c2)[C@@H](c2ccc(F)cc2)c2c(CNC(=O)[C@H](C)C#N)nn(-c3ccccc3)c21 (relative stereo)", "Value Reported": "1000 to 3000 nM"}

# context switch: different compound, same IC50
Query :: Field request: IC50 | item: CCN1C(=O)[C@@H](NC(=O)c2cnc(C)cc2Cl)[C@@H](C2CC2)c2c(C(=O)N3[C@H](C#N)C[C@H]4C[C@H]43)nn(C3CCOCC3)c21
Result :: 1000 to 3000 nM
